Origin of measurements: patent US20250207140

Biological target: SARS-CoV-2 spike protein (original strain) (SARS-CoV-2, UniProt P0DTC2 P0DTC2:14-1273)
Experiment: flow
Measured attribute: pKd
Remember the convention: pKd equals -log10 of concentration in molar.

Task item: Looking for the measured pKd of SEQ ID NO: 14 aptamer (72 nt truncation of SEQ ID NO: 1) (ssRNA, 2'-F pyrimidines) RNA: GGGAGAGCGGAAGCGUGCUGGGCCCCUUUGACCAUAGGAGGCAAGUCUUAUGUUCAAACUGGUCCAUAACCC , can you help?
Reply: 7.68
